Source: PubChem BioAssay (NCI)

# Test system: RPMI-8226 leukemia
# ASSAY COMMENT: NCI tumour cell line growth inhibition, 48 h; in the data active = GI50 below about 0.43 µM; inactive = the rest
Assign a class; possible classes are true = active, false = inactive

In: I would be grateful if you could indicate the recorded call for Cc1cccc(Cc2cnc(NC(=O)CCc3ccc(C)o3)s2)c1 .
Out: true

In: Test call, this compound: COc1c(B(O)O)cc(F)cc1-c1nc2ccc3[nH]ncc3c2c2c1CCCC2
Out: false

In: Could you kindly confirm the outcome this assay logged for C=C1C(=O)O[C@H]2[C@H]1CC/C(COC(=O)NCc1ccc(Cn3c(=O)sn(-c4ccccc4)c3=O)cc1)=C\CC[C@@]1(C)O[C@@H]21 ?
Out: false

In: For COc1ccc2ccc3oc([N+](=O)[O-])cc3c2c1 , which call appears in the assay record?
Out: true

In: Would you mind telling me which call this test gave CCCCCCCCCCCCCCCC1=NC(C)(C)CN1C(C)C ?
Out: false

---

# System: OVCAR-4 ovarian
# ASSAY COMMENT: NCI tumour cell line growth inhibition, 48 h
For each entry below, report its TGI value.
// return numeric value only (unit: µM, not printed)

Tested on OVCAR-4 ovarian, the item COC(=O)C(C)NC(=O)c1ccccc1I(OS(=O)(=O)C(F)(F)F)c1ccccc1 (stereo not given) showed TGI equal to 50.9

The reported TGI value, OVCAR-4 ovarian, for CCC[CH2][Sn]1([CH2]CCC)[O]CC(C)[O]1 (stereo not given) reads 3.45

CCN(Cc1c(Cl)cccc1Cl)c1ccc(CO)c(Cl)c1 tested on OVCAR-4 ovarian gave TGI: 8.24

I looked up CC1(C)C(=O)/C(=C\c2cccnc2)C[C@]2(C)[C@H]3CC[C@@H]4[C@@H](C(=O)/C=C/c5ccncc5)CC[C@@]4(C)[C@]3(C)CC[C@@H]12 and its TGI for OVCAR-4 ovarian was 9.89

The observed TGI for COC1OC2=CCC3C(=O)NC(=O)C3C2[C@H](OCc2ccccc2)C1OCc1ccccc1 (stereo not given in full) when tested with OVCAR-4 ovarian stands at 5.32

Record CCCCCCCCCCCCCCCC1=NC(C)(C)CN1C(C)C ; system OVCAR-4 ovarian; TGI = 6.37

Brc1ccc2c(-c3csc(-c4c[nH]c5ccccc45)n3)c[nH]c2c1 tested on OVCAR-4 ovarian gave TGI: 39.8

// molecule O=C(CSc1nc2ccccc2c(=O)n1-c1ccccc1)N=Nc1c(O)[nH]c2ccc(F)cc12 , assay OVCAR-4 ovarian, TGI value: 4.34

---

Exercise: state measured TGI for each of the compounds provided.
# Tested on: KM12 colon
# ASSAY COMMENT: NCI tumour cell line growth inhibition, 48 h
// return numeric value only (unit: µM, not printed)

TGI for KM12 colon with input CCN(CC)CCNC(=O)c1cccc2nc3ccccc3nc12 equals 45.8

Summary: CCN(Cc1c(Cl)cccc1Cl)c1ccc(CO)c(Cl)c1 , KM12 colon, TGI = 28.4

So the reported TGI for CCN1CCC(O)(/C=C/c2ccc(C(C)C)cc2)C(C(=O)/C=C/c2ccc(C(C)C)cc2)C1 (configuration not stated) , on KM12 colon, turned out to be 4.87

Given the compound Cc1ccc([C@]2(C)CC[C@H](C)/C2=C\Br)c(O)c1 and test system KM12 colon, the measured TGI is 13.7

Tested on KM12 colon, the item Cc1cc(C(=O)c2ccccc2)c(C)c2c1[nH]c1ccc(Cl)cc12 showed TGI equal to 7.23

# Cc1nc2ccccc2c(/C=C/c2ccc(Cl)cc2)c1C(=O)/C=C/c1ccccc1 with KM12 colon: TGI is 3.04
